target: CREBBP bromodomain (His-CREBBP(1081-1197)) (Homo sapiens (Human)); test: AlphaScreen in-vitro binding assay for CREBBP; settings: single determination or n ≧ 2 independent determinations, read-out: Biochemical IC50 CREBBP
Sequence (Q92793 1081-1197): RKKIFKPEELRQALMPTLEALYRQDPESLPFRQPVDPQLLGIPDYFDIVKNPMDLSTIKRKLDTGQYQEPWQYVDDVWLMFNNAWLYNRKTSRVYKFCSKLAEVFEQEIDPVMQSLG
Collected IC50 values appear next to each entry.
measured-attribute: IC50 (µM)

>>> result("CCCn1c(-c2cncc(C#N)c2)nc2c1C(=O)N(c1cc(C)c(=O)n(C)c1)C2c1ccc(Cl)cc1 (stereo not shown)")
4.1
>>> result("Cc1cc(N2C(=O)c3c(nc(C)n3C(C)C)C2c2ccc(Cl)cc2)cc2c1nnn2C (racemic)")
2.6
>>> result("CCn1c(-c2ccc(OC)nc2)nc2c1C(=O)N(c1cc(C)c(=O)n(C)c1)C2c1ccc(Cl)cc1 (stereo not shown)")
2
>>> result("CC(C)n1c(-c2ccnn2C)nc2c1C(c1ccc(Cl)cc1)N(c1ccc(=O)n(C)c1)C2=O (stereo not shown)")
34.8
>>> result("CCCn1c(-c2cc(OC)ncc2F)nc2c1C(=O)N(c1cc(C)c(=O)n(C)c1)C2c1ccc(Cl)cc1 (stereo not shown)")
2.5
>>> result("Cc1cc(N2C(=O)c3nc(C4=CCN(C(=O)NC(C)(C)C)CC4)n(C(C)C)c3C2c2ccc(Cl)cc2)cn2c(C)nnc12 (stereo not shown)")
5.1
>>> result("Cc1cc(N2C(=O)c3nc(C)n(C(C)C)c3[C@H]2c2ccc(Cl)cc2)cn2c(C)nnc12")
5.7

Data origin, for the record: patent US9890166B2
